Assay name: Tmax in male Sprague-Dawley rat at 10 mg/kg, po measured upto 30 hrs by LC-MS/MS analysis
Format: ADME, organism-based
Condition parameters: in vivo
Recorded metric: Tmax

Compound: NC(=O)/C(=C/n1cnc(-c2cc(C(F)(F)F)cc(C(F)(F)F)c2)n1)c1cncnc1 [ELTANEXOR]
Recorded metric: Tmax
Reported result: 60 min
//
Compound: CONC(=O)/C(=C/n1cnc(-c2cc(C(F)(F)F)cc(C(F)(F)F)c2)n1)c1cncnc1
Recorded metric: Tmax
Reported result: 18 min

----------
Test system: MM1.S
Assay name: Antiproliferative activity against human MM1.S cells assessed as inhibition of cell growth incubated for 72 hrs by celltiter-glo assay
Assay type: functional, cell-based
Recorded metric: IC50 (nM)

Compound: NC(=O)/C(=C/n1ccc(-c2cc(C(F)(F)F)cc(C(F)(F)F)c2)n1)c1ccncc1
Measurement target: MM1.S
Recorded metric: IC50
Reported result: 1430
--
Compound: O=C(NC1CCCCCC1)/C(=C/n1cnc(-c2cc(C(F)(F)F)cc(C(F)(F)F)c2)n1)c1cncnc1
Measurement target: MM1.S
Recorded metric: IC50
Reported result: 321
--
Compound: CNC(=O)/C(=C/n1cnc(-c2cc(C(F)(F)F)cc(C(F)(F)F)c2)n1)c1cncnc1
Measurement target: MM1.S
Recorded metric: IC50
Reported result: 189
--
Compound: NC(=O)/C(=C/c1cnn(-c2cc(C(F)(F)F)cc(C(F)(F)F)c2)c1)c1ccc(C(F)(F)F)nc1
Measurement target: MM1.S
Recorded metric: IC50
Reported result: 1340
--
Compound: NC(=O)/C(=C/c1cnn(-c2cc(C(F)(F)F)cc(C(F)(F)F)c2)c1)c1cncnc1
Measurement target: MM1.S
Recorded metric: IC50
Reported result: 1750
--
Compound: CONC(=O)/C(=C/n1cnc(-c2cc(C(F)(F)F)cc(C(F)(F)F)c2)n1)c1ccncc1
Measurement target: MM1.S
Recorded metric: IC50
Reported result: 202
--
Compound: O=C(NC1CCCCC1)/C(=C/n1cnc(-c2cc(C(F)(F)F)cc(C(F)(F)F)c2)n1)c1cncnc1
Measurement target: MM1.S
Recorded metric: IC50
Reported result: 572
--
Compound: NC(=O)/C(=C/n1cnc(-c2cc(C(F)(F)F)nc(C(F)(F)F)c2)n1)c1cncnc1
Measurement target: MM1.S
Recorded metric: IC50
Reported result: 226
--
Compound: COc1ncc(/C(=C\n2cnc(-c3cc(C(F)(F)F)cc(C(F)(F)F)c3)n2)C(N)=O)cn1
Measurement target: MM1.S
Recorded metric: IC50
Reported result: 646
--
Compound: Cc1ccc(/C(=C\n2cnc(-c3cc(C(F)(F)F)nc(C(F)(F)F)c3)n2)C(N)=O)cn1
Measurement target: MM1.S
Recorded metric: IC50
Reported result: 245
--
Compound: O=C(NC1CCCC1)/C(=C/n1cnc(-c2cc(C(F)(F)F)cc(C(F)(F)F)c2)n1)c1cncnc1
Measurement target: MM1.S
Recorded metric: IC50
Reported result: 292
--
Compound: CN(C)c1ncc(/C(=C\n2cnc(-c3cc(C(F)(F)F)cc(C(F)(F)F)c3)n2)C(N)=O)cn1
Measurement target: MM1.S
Recorded metric: IC50
Reported result: 1310
--
Compound: NC(=O)/C(=C/n1ccc(-c2cc(C(F)(F)F)cc(C(F)(F)F)c2)n1)c1cncnc1
Measurement target: MM1.S
Recorded metric: IC50
Reported result: 1210
--
Compound: NC(=O)/C(=C/n1cnc(-c2cc(C(F)(F)F)cc(C(F)(F)F)c2)n1)c1ccncc1
Measurement target: MM1.S
Recorded metric: IC50
Reported result: 128
--
Compound: O=C(NC12CC3CCC1CC(C3)C2)/C(=C/n1cnc(-c2cc(C(F)(F)F)cc(C(F)(F)F)c2)n1)c1cncnc1 (centres undefined)
Measurement target: MM1.S
Recorded metric: IC50
Reported result: 323
--
Compound: NC(=O)/C(=C/n1cnc(-c2cc(C(F)(F)F)cc(C(F)(F)F)c2)n1)c1ccc(C(F)(F)F)nc1
Measurement target: MM1.S
Recorded metric: IC50
Reported result: 1660
--
Compound: NC(=O)/C(=C/n1cnc(-c2cc(C(F)(F)F)cc(C(F)(F)F)c2)n1)c1ccccc1
Measurement target: MM1.S
Recorded metric: IC50
Reported result: 346
--
Compound: CONC(=O)/C(=C/n1cnc(-c2cc(C(F)(F)F)cc(C(F)(F)F)c2)n1)c1ccsc1
Measurement target: MM1.S
Recorded metric: IC50
Reported result: 990
--
Compound: O=C(NC1CC1)/C(=C/n1cnc(-c2cc(C(F)(F)F)cc(C(F)(F)F)c2)n1)c1cncnc1
Measurement target: MM1.S
Recorded metric: IC50
Reported result: 178
--
Compound: CONC(=O)/C(=C/n1cnc(-c2cc(C(F)(F)F)nc(C(F)(F)F)c2)n1)c1cncnc1
Measurement target: MM1.S
Recorded metric: IC50
Reported result: 198
--
Compound: N#Cc1ccc(/C(=C\n2ccc(-c3cc(C(F)(F)F)cc(C(F)(F)F)c3)n2)C(N)=O)cn1
Measurement target: MM1.S
Recorded metric: IC50
Reported result: 880
--
Compound: CONC(=O)/C(=C/n1cnc(-c2cc(C(F)(F)F)cc(C(F)(F)F)c2)n1)c1cnc(OC)nc1
Measurement target: MM1.S
Recorded metric: IC50
Reported result: 244
--
Compound: CONC(=O)/C(=C/n1cnc(-c2cc(OC(=O)CCNC(=O)CCCC[C@@H]3SC[C@@H]4NC(=O)N[C@@H]43)cc(C(F)(F)F)c2)n1)c1cncnc1
Measurement target: MM1.S
Recorded metric: IC50
Reported result: 1700
--
Compound: CONC(=O)/C(=C/n1cnc(-c2cc(C(F)(F)F)cc(C(F)(F)F)c2)n1)c1ccn(C)n1
Measurement target: MM1.S
Recorded metric: IC50
Reported result: 1200
--
Compound: NC(=O)/C(=C/n1cnc(-c2cc(C(F)(F)F)cc(C(F)(F)F)c2)n1)c1cncnc1 [ELTANEXOR]
Measurement target: MM1.S
Recorded metric: IC50
Reported result: 84.7
--
Compound: CONC(=O)/C(=C/n1cnc(-c2cc(C(F)(F)F)cc(C(F)(F)F)c2)n1)c1ccc(C#N)nc1
Measurement target: MM1.S
Recorded metric: IC50
Reported result: 185
--
Compound: NC(=O)/C(=C/n1cnc(-c2cc(C(F)(F)F)cc(C(F)(F)F)c2)n1)c1cncc(F)c1
Measurement target: MM1.S
Recorded metric: IC50
Reported result: 259
--
Compound: COc1ncc(/C(=C\c2cnn(-c3cc(C(F)(F)F)cc(C(F)(F)F)c3)c2)C(N)=O)cn1
Measurement target: MM1.S
Recorded metric: IC50
Reported result: 2260
--
Compound: O=C(NCc1cccnc1)/C(=C/n1cnc(-c2cc(C(F)(F)F)cc(C(F)(F)F)c2)n1)c1cncnc1
Measurement target: MM1.S
Recorded metric: IC50
Reported result: 1400
--
Compound: N#Cc1ccc(/C(=C\n2cnc(-c3cc(C(F)(F)F)cc(C(F)(F)F)c3)n2)C(N)=O)cn1
Measurement target: MM1.S
Recorded metric: IC50
Reported result: 176
--
Compound: COC(=O)CNC(=O)/C(=C/n1cnc(-c2cc(C(F)(F)F)cc(C(F)(F)F)c2)n1)c1cncnc1
Measurement target: MM1.S
Recorded metric: IC50
Reported result: 99.3
--
Compound: CONC(=O)/C(=C/n1cnc(-c2cc(C(F)(F)F)cc(C(F)(F)F)c2)n1)c1ccc(C#N)cc1
Measurement target: MM1.S
Recorded metric: IC50
Reported result: 1040
--
Compound: O=C(NC1CCOCC1)/C(=C/n1cnc(-c2cc(C(F)(F)F)cc(C(F)(F)F)c2)n1)c1cncnc1
Measurement target: MM1.S
Recorded metric: IC50
Reported result: 142
--
Compound: CON(C)C(=O)/C(=C/n1cnc(-c2cc(C(F)(F)F)cc(C(F)(F)F)c2)n1)c1cncnc1
Measurement target: MM1.S
Recorded metric: IC50
Reported result: 75.7
